Give measured pKi for each item. Keep answers brief.
- system_under_test: T1, human Nectin-4 (human, UniProt Q96NY8 32-349)
- T1 construct: a Gly32-Ser349 FLAG construct is described only under the SPR assay; also called PVRL4
- T1 sequence (looked up): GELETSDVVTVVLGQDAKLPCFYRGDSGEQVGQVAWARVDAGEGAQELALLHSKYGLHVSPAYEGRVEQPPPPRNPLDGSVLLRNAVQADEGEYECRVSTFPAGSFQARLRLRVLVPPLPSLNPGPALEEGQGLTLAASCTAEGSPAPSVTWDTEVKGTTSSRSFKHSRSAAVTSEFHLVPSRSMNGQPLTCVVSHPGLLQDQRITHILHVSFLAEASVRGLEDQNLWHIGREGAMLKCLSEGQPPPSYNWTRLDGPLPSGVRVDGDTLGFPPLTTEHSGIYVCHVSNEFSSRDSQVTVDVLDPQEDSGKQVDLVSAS
- experiment_notes: FP competition, tracer SEQ ID NO 217
- Description: Peptides were diluted to an appropriate concentration in assay buffer as described in the direct binding assay with a maximum of 5% DMSO, then serially diluted 1 in 2. […] Measurements were conducted as for the direct binding assay, however the gain was determined prior to the first measurement. Data analysis was in Systat Sigmaplot version 12.0 where the mP values were fit to a user defined cubic equation to generate a Ki value: […]
*1 amine or outer side, *2 acyl side, *3 side chain or, on linkers, in order; H or OH if unused. Bridges are numbered along the chain shown (N, C = ends). Where no end group is shown, it is not given here. [ ]: non-standard residue; d: D form. TATA = O=C(CC[*:1])N1CN(C(=O)CC[*:2])CN(C(=O)CC[*:3])C1; HGln = homoglutamine, NC(=O)CCC[C@H](N[*:1])C(=O)[*:2]; 1Nal = N[C@@H](Cc1cccc2ccccc12)C(=O)O; 2Nal = N[C@@H](Cc1ccc2ccccc2c1)C(=O)O; Dopa = N[C@@H](Cc1ccc(O)c(O)c1)C(=O)O; NMehArg = CN[C@@H](CCCCNC(=N)N)C(=O)O; Hyp = O=C(O)[C@@H]1C[C@@H](O)CN1; hArg = N=C(N)NCCCC[C@H](N)C(=O)O; hSer = N[C@@H](CCO)C(=O)O; βAla = NCCC(=O)O; Sar = CNCC(=O)O
Give only the number. pKi is defined as minus log10 of concentration in molar units.

**Q:** Give its pKi value. Item: Ac-CP[1Nal][dR]CM[hArg]HWSTP[Hyp]WC (linker 1-5-15 via TATA) [BCY8129]
**A:** 8.51

**Q:** Give its pKi value. Item: XACPFGCMKNWSWPIWCA (N-terminal X = 44BPA (4,4-biphenylalanine); TATA on 3 Cys, also called 80-09-02-N012) [BCY7521]
**A:** 6.65

**Q:** Give its pKi value. Item: Ac-CPF[dD]CL[hArg]NWSTPPWC (linker 1-5-15 via TATA) [BCY8038]
**A:** 8.10

**Q:** Give its pKi value. Item: {Ac-βAla}-[Sar][Sar][Sar][Sar][Sar]CP[1Nal][dD]CM[hArg]DWSTPIWC (linker 6-10-20 via TATA) [BCY8123]
**A:** 8.35

**Q:** Give its pKi value. Item: XACPFGCMKNWSWPIWCA (N-terminal X = 2-Nal; TATA on 3 Cys, also called 80-09-02-N010) [BCY7421]
**A:** 7.55

**Q:** Give its pKi value. Item: QKWCAPLSDYWCNRICA (linker 4-12-16 via TATA; not fully specified, also called 80-10-13-T01) [BCY3400]
**A:** 7.33

**Q:** Give its pKi value. Item: ACPFGCMXNWSWPIWCTNK (core CPFGCM[K(Ac)]NWSWPIWC; TATA on 3 Cys) [BCY7266]
**A:** 7.39

**Q:** Give its pKi value. Item: Ac-CPF[dL]CM[hArg]NWSTPIWC (linker 1-5-15 via TATA) [BCY7906]
**A:** 8.22

**Q:** Give its pKi value. Item: Ac-CPF[dD]C[HGln][hArg]NWSTPIWC (linker 1-5-15 via TATA) [BCY7914]
**A:** 7.21

**Q:** Give its pKi value. Item: Ac-CPFGCMPNWSWPIWC (linker 1-5-15 via TATA) [BCY7614]
**A:** 7.68

**Q:** Give its pKi value. Item: Ac-CPFGCMKN[2Nal]SWPIWC (linker 1-5-15 via TATA) [BCY7664]
**A:** 7.15

**Q:** Give its pKi value. Item: ACPFGCMKGWSWPIWCLKD (linker 2-6-16 via TATA) [BCY3395]
**A:** 7.76

**Q:** Give its pKi value. Item: AC[dA]FGCMKNWSWPIWCTNK (linker 2-6-16 via TATA) [BCY7370]
**A:** 6.84

**Q:** Give its pKi value. Item: Ac-CP[1Nal][dD]CMPDWSTP[Hyp]WC (linker 1-5-15 via TATA) [BCY8182]
**A:** 8.70

**Q:** Give its pKi value. Item: Ac-CPF[dD]CM[hArg]NWS[Dopa]PIWC (linker 1-5-15 via TATA) [BCY7887]
**A:** 7.67

**Q:** Give its pKi value. Item: Ac-CP[1Nal][dR]CM[hArg]DWSSP[Hyp]WC (linker 1-5-15 via TATA) [BCY8191]
**A:** 8.35

**Q:** Give its pKi value. Item: Ac-CPF[dD]CM[hArg]NW[hSer]TPIWC (linker 1-5-15 via TATA) [BCY7908]
**A:** 7.70

**Q:** Give its pKi value. Item: Ac-CPFK(Ac)CMKNWSWPIWC (linker 1-5-15 via TATA) [BCY7611]
**A:** 6.69

**Q:** Give its pKi value. Item: Ac-CP[1Nal][dD]CM[hArg]DWDTP[Hyp]WC (linker 1-5-15 via TATA) [BCY8174]
**A:** 7.91

**Q:** Give its pKi value. Item: DSECPFGCMSGWSWPIWCA (linker 4-8-18 via TATA) [BCY3389]
**A:** 7.00

**Q:** Give its pKi value. Item: Ac-CPFGCMDNWSWPIWC (linker 1-5-15 via TATA, also called 80-09-02-N048) [BCY7659]
**A:** 7.11

**Q:** Give its pKi value. Item: Ac-CPF[dD]CM[NMehArg]NWSTPIWC (linker 1-5-15 via TATA) [BCY8153]
**A:** 7.46

**Q:** Give its pKi value. Item: Ac-QKWCAPLSDYWCNRIC (linker 4-12-16 via TATA) [BCY7392]
**A:** 7.57
